Data origin, for the record: ChEMBL document CHEMBL4828766

# Lookup of reported Activity keyed by entry
- measured_target: UniProtKB Q01727
- method: Agonist activity at mouse MC1R expressed in HEK293 cells assessed as induction of cAMP level at 100 uM incubated for 2 hr by alphaScreen assay relative to NDP-MSH
- Format: functional, cell-based
- study_conditions: filed as agonist
Square brackets hold non-standard residues; d marks the D form. Peptide text beside a SMILES is read from it. dPhe(4-I) = N[C@H](Cc1ccc(I)cc1)C(=O)O; 2Nal = N[C@@H](Cc1ccc2ccccc2c1)C(=O)O; d2Nal = N[C@H](Cc1ccc2ccccc2c1)C(=O)O
Record the result as a number with its unit.

{"columns": ["compound", "Activity"],
 "data": [
  ["CC(=O)N[C@H](Cc1ccc(I)cc1)C(=O)N[C@H](Cc1ccc2ccccc2c1)C(=O)N[C@@H](Cc1ccc2ccccc2c1)C(=O)N[C@H](CCCCN)C(N)=O (Ac-[dPhe(4-I)][d2Nal][2Nal][dK]-NH2)", "40%"],
  ["CC(=O)N[C@H](Cc1ccc2ccccc2c1)C(=O)N[C@H](Cc1ccc2ccccc2c1)C(=O)N[C@@H](Cc1ccc2ccccc2c1)C(=O)N[C@@H](CCCNC(=N)N)C(N)=O", "55%"],
  ["CC(=O)N[C@H](Cc1ccc(I)cc1)C(=O)N[C@@H](CCCNC(=N)N)C(=O)N[C@@H](Cc1ccc2ccccc2c1)C(=O)N[C@H](Cc1ccc2ccccc2c1)C(N)=O (Ac-[dPhe(4-I)]R[2Nal][d2Nal]-NH2)", "55%"],
  ["CC(=O)N[C@H](Cc1ccc2ccccc2c1)C(=O)N[C@H](Cc1ccc2ccccc2c1)C(=O)N[C@@H](Cc1c[nH]c2ccccc12)C(=O)N[C@@H](CCCNC(=N)N)C(N)=O (Ac-[d2Nal][d2Nal]WR-NH2)", "45%"]
]}

As a next step, examine the compound that follows.
Per the record, CC(=O)N[C@H](Cc1ccc(I)cc1)C(=O)N[C@H](Cc1ccc2ccccc2c1)C(=O)N[C@@H](Cc1c[nH]c2ccccc12)C(=O)N[C@H](CCCCN)C(N)=O (Ac-[dPhe(4-I)][d2Nal]W[dK]-NH2) has Activity of 65%

###

# Lookup of reported Kb keyed by entry
- measured_target: Melanocortin receptor 3 (Mus musculus, UniProt P33033)
- Sequence (P33033 whole entry): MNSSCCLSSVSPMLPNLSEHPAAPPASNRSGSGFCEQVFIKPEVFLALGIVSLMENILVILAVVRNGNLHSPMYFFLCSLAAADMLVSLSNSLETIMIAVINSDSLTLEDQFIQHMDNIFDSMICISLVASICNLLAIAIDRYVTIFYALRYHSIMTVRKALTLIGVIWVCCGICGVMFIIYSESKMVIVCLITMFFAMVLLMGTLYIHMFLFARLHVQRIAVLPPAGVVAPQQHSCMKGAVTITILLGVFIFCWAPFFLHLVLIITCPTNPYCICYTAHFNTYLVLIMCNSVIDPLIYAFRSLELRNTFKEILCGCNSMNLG
- method: Antagonist activity at mouse melanocortin receptor 3 expressed in HEK293 cells assessed as inhibition of NDP-MSH-induced cAMP accumulation incubated for 2 hrs by cAMP Alpha-screen assay based Schild analysis
- Format: functional, cell-based
- study_conditions: read-out: pA2 (converted)
Square brackets hold non-standard residues; d marks the D form. Peptide text beside a SMILES is read from it. dPhe(4-I) = N[C@H](Cc1ccc(I)cc1)C(=O)O; d2Nal = N[C@H](Cc1ccc2ccccc2c1)C(=O)O
Output spec: scalar in nM, unitless text.

Example entries begin here.
{"columns": ["molecule", "Kb / nM"],
 "data": [
  ["CC(=O)N[C@H](Cc1ccc2ccccc2c1)C(=O)N[C@@H](CCCNC(=N)N)C(=O)N[C@@H](Cc1c[nH]c2ccccc12)C(=O)N[C@H](CCCCN)C(N)=O (Ac-[d2Nal]RW[dK]-NH2)", 3160],
  ["CC(=O)N[C@H](Cc1ccc2ccccc2c1)C(=O)N[C@@H](CCCNC(=N)N)C(=O)N[C@@H](Cc1c[nH]c2ccccc12)C(=O)N[C@@H](CCCNC(=N)N)C(N)=O (Ac-[d2Nal]RWR-NH2)", 158]
]}

As a next step, examine the molecule that follows.
Per the record, CC(=O)N[C@H](Cc1ccc(I)cc1)C(=O)N[C@@H](CCCNC(=N)N)C(=O)N[C@@H](Cc1c[nH]c2ccccc12)C(=O)N[C@@H](CCCNC(=N)N)C(N)=O (Ac-[dPhe(4-I)]RWR-NH2) has Kb of 39.8

###

- measured_target: UniProt:Q01727
- method: Agonist activity at mouse MC1R expressed in HEK293 cells assessed as induction of cAMP level at 100 uM incubated for 2 hr by alphaScreen assay
- Format: functional, cell-based
Square brackets hold non-standard residues; d marks the D form. Peptide text beside a SMILES is read from it. dPhe(4-I) = N[C@H](Cc1ccc(I)cc1)C(=O)O; d2Nal = N[C@H](Cc1ccc2ccccc2c1)C(=O)O
measurement_name: log10(EC50) (log10 of the value in nM)
Please be aware that the numbers have been log10-transformed from EC50 in nM.

{"columns": ["compound", "log10(EC50)"],
 "data": [
  ["CC(=O)N[C@H](Cc1ccc2ccccc2c1)C(=O)N[C@@H](CCCNC(=N)N)C(=O)N[C@H](Cc1ccc(I)cc1)C(=O)N[C@H](CCCCN)C(N)=O", 2.34],
  ["CC(=O)N[C@H](Cc1ccc(I)cc1)C(=O)N[C@@H](CCCNC(=N)N)C(=O)N[C@H](Cc1ccc(I)cc1)C(=O)N[C@H](Cc1ccc2ccccc2c1)C(N)=O (Ac-[dPhe(4-I)]R[dPhe(4-I)][d2Nal]-NH2)", 3.04],
  ["CC(=O)N[C@H](Cc1ccc(I)cc1)C(=O)N[C@@H](CCCNC(=N)N)C(=O)N[C@H](Cc1ccc(I)cc1)C(=O)N[C@@H](CCCNC(=N)N)C(N)=O (Ac-[dPhe(4-I)]R[dPhe(4-I)]R-NH2)", 0.85],
  ["CC(=O)N[C@H](Cc1ccc2ccccc2c1)C(=O)N[C@@H](CCCNC(=N)N)C(=O)N[C@H](Cc1ccc(I)cc1)C(=O)N[C@@H](CCCNC(=N)N)C(N)=O (Ac-[d2Nal]R[dPhe(4-I)]R-NH2)", 1.60]
]}

As a next step, examine the compound that follows.
Per the record, CC(=O)N[C@H](Cc1ccc(I)cc1)C(=O)N[C@@H](CCCNC(=N)N)C(=O)N[C@H](Cc1ccc(I)cc1)C(=O)N[C@H](CCCCN)C(N)=O (Ac-[dPhe(4-I)]R[dPhe(4-I)][dK]-NH2) has log10(EC50) of 1.54

###

# Lookup of reported pEC50 keyed by entry
- measured_target: Melanocyte-stimulating hormone receptor (Mus musculus, UniProt Q01727)
- Sequence (Q01727 whole entry): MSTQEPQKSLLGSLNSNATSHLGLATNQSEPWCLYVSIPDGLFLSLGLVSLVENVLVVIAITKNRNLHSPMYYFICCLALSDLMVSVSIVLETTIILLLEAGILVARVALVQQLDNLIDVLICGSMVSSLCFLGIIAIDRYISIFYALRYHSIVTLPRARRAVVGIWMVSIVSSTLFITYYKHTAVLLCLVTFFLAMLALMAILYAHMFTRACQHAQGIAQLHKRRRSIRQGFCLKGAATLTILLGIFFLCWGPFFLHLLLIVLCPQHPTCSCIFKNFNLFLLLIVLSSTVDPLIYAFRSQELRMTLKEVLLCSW
- method: Partial agonist activity at mouse MC1R expressed in HEK293 cells assessed as induction of cAMP level incubated for 2 hr by alphaScreen assay
- Format: functional, cell-based
Square brackets hold non-standard residues; d marks the D form. Peptide text beside a SMILES is read from it. dPhe(4-I) = N[C@H](Cc1ccc(I)cc1)C(=O)O; 2Nal = N[C@@H](Cc1ccc2ccccc2c1)C(=O)O; d2Nal = N[C@H](Cc1ccc2ccccc2c1)C(=O)O
Keep it numeric: pEC50 is minus log10 of the concentration in mol/L.

{"columns": ["compound", "val"],
 "data": [
  ["CC(=O)N[C@H](Cc1ccc2ccccc2c1)C(=O)N[C@@H](CCCNC(=N)N)C(=O)N[C@@H](Cc1ccc2ccccc2c1)C(=O)N[C@H](CCCCN)C(N)=O (Ac-[d2Nal]R[2Nal][dK]-NH2)", 5.48],
  ["CC(=O)N[C@H](Cc1ccc2ccccc2c1)C(=O)N[C@@H](CCCNC(=N)N)C(=O)N[C@H](Cc1ccc2ccccc2c1)C(=O)N[C@H](Cc1ccc2ccccc2c1)C(N)=O (Ac-[d2Nal]R[d2Nal][d2Nal]-NH2)", 5.30],
  ["CC(=O)N[C@H](Cc1ccc2ccccc2c1)C(=O)N[C@@H](CCCNC(=N)N)C(=O)N[C@H](Cc1ccc2ccccc2c1)C(=O)N[C@@H](CCCNC(=N)N)C(N)=O (Ac-[d2Nal]R[d2Nal]R-NH2)", 6.00],
  ["CC(=O)N[C@H](Cc1ccc2ccccc2c1)C(=O)N[C@@H](CCCNC(=N)N)C(=O)N[C@H](Cc1ccc2ccccc2c1)C(=O)N[C@H](CCCCN)C(N)=O (Ac-[d2Nal]R[d2Nal][dK]-NH2)", 5.22]
]}

As a next step, examine the compound that follows.
Per the record, CC(=O)N[C@H](Cc1ccc(I)cc1)C(=O)N[C@@H](CCCNC(=N)N)C(=O)N[C@@H](Cc1c[nH]c2ccccc12)C(=O)N[C@@H](CCCNC(=N)N)C(N)=O (Ac-[dPhe(4-I)]RWR-NH2) has pEC50 of 5.10

###

- measured_target: Melanocortin receptor 3 (Mus musculus, UniProt P33033)
- method: Antagonist activity at mouse melanocortin receptor 3 expressed in HEK293 cells assessed as inhibition of NDP-MSH-induced cAMP accumulation incubated for 2 hrs by cAMP Alpha-screen assay based Schild analysis
- Type: functional, cell-based
- study_conditions: read-out: pA2 (converted)
Square brackets hold non-standard residues; d marks the D form. Peptide text beside a SMILES is read from it. dPhe(4-I) = N[C@H](Cc1ccc(I)cc1)C(=O)O; 2Nal = N[C@@H](Cc1ccc2ccccc2c1)C(=O)O; d2Nal = N[C@H](Cc1ccc2ccccc2c1)C(=O)O
measurement_name: Kb (µM)
Output spec: scalar in µM, unitless text.

{"columns": ["compound", "measurement_name", "val"],
 "data": [
  ["CC(=O)N[C@H](Cc1ccc2ccccc2c1)C(=O)N[C@@H](CCCNC(=N)N)C(=O)N[C@@H](Cc1ccc2ccccc2c1)C(=O)N[C@H](CCCCN)C(N)=O (Ac-[d2Nal]R[2Nal][dK]-NH2)", "Kb", 0.631],
  ["CC(=O)N[C@H](Cc1ccc2ccccc2c1)C(=O)N[C@@H](CCCNC(=N)N)C(=O)N[C@@H](Cc1c[nH]c2ccccc12)C(=O)N[C@H](Cc1ccc2ccccc2c1)C(N)=O (Ac-[d2Nal]RW[d2Nal]-NH2)", "Kb", 2],
  ["CC(=O)N[C@H](Cc1ccc(I)cc1)C(=O)N[C@@H](CCCNC(=N)N)C(=O)N[C@@H](Cc1c[nH]c2ccccc12)C(=O)N[C@H](Cc1ccc2ccccc2c1)C(N)=O (Ac-[dPhe(4-I)]RW[d2Nal]-NH2)", "Kb", 1],
  ["CC(=O)N[C@H](Cc1ccc2ccccc2c1)C(=O)N[C@@H](CCCNC(=N)N)C(=O)N[C@H](Cc1ccc(I)cc1)C(=O)N[C@H](CCCCN)C(N)=O", "Kb", 0.126]
]}

As a next step, examine the compound that follows.
Summary line: CC(=O)N[C@H](Cc1ccc(I)cc1)C(=O)N[C@H](Cc1ccc2ccccc2c1)C(=O)N[C@@H](Cc1c[nH]c2ccccc12)C(=O)N[C@H](CCCCN)C(N)=O (Ac-[dPhe(4-I)][d2Nal]W[dK]-NH2) , Melanocortin receptor 3 (Mus musculus, UniProt P33033), reported Kb = 2
